- Tested on: M. pneumoniae
- Assay Comment: microbe, parasite or virus in culture
- Assay type: cell-based
- Condition Parameters: Mycoplasmoides pneumoniae
Record form. Attribute: log10 of MIC90. Fill in for each entry.
Annotation: log10 of MIC90, µg/mL basis.

# Compound Smiles, log10 of MIC90
measured = [
    ("C[C@H]1c2cccc(O)c2C(=O)C2=C(O)[C@]3(O)C(=O)C(C(N)=O)=C(O)[C@@H](N(C)C)[C@@H]3[C@@H](O)[C@@H]21", -0.60),
    ("CC[C@H]1OC(=O)[C@H](C)[C@@H](O[C@H]2C[C@@](C)(OC)[C@@H](O)[C@H](C)O2)[C@H](C)[C@@H](O[C@@H]2O[C@H](C)C[C@H](N(C)C)[C@H]2O)[C@](C)(O)C[C@@H](C)CN(C)[C@H](C)[C@@H](O)[C@]1(C)O", -3.30),
    ("C[C@H]1COc2c(N3CCN(C)CC3)c(F)cc3c(=O)c(C(=O)O)cn1c23", -0.30),
    ("CC[C@H]1OC(=O)[C@H](C)C(=O)[C@H](C)[C@@H](O[C@@H]2O[C@H](C)C[C@H](N(C)C)[C@H]2O)[C@](C)(OC)C[C@@H](C)C(=O)[C@H](C)[C@H]2N(CCCCn3cnc(-c4cccnc4)c3)C(=O)O[C@]12C", -3.00),
]

Req: Name the recorded log10 of MIC90 for `CC(=O)NC[C@H]1CN(c2ccc(N3CCOCC3)c(F)c2)C(=O)O1` .
Resp: 2.11

---

- System: group A streptococci
- Assay Comment: microbe, parasite or virus in culture
- Assay type: cell-based, S. pyogenes
Experimental Endpoint: MIC50 (µg/mL)
Give bare numbers, in µg/mL.

# Compound, Target Or Test System, MIC50 [µg/mL]
data = [
    ("CC1(C)S[C@@H]2[C@H](NC(=O)Cc3ccccc3)C(=O)N2[C@H]1C(=O)O [Pen G]", "group A streptococci", 0.015),
    ("COc1c(N2C[C@@H]3CCCN[C@@H]3C2)c(F)cc2c(=O)c(C(=O)O)cn(C3CC3)c12 [Moxi]", "group A streptococci", 0.25),
    ("CC1(C)S[C@@H]2[C@H](NC(=O)Cc3ccccc3)C(=O)N2[C@H]1C(=O)O [Penicillin G]", "group A streptococci", 0.015),
]

Req: Name the recorded MIC50 for C[C@H]1COc2c(N3CCN(C)CC3)c(F)cc3c(=O)c(C(=O)O)cn1c23 [Levo] .
Resp: 0.5

---

Record form. Attribute: Retest MIC after 10 Antibioticfree Subcultures. Fill in for each entry.
- Test system: S. pyogenes
- Assay Comment: microbe, parasite or virus in culture
- Format: cell-based
- Condition Parameters: strain 2132 Macrolide-S, clone selected with AZI
Give bare numbers, in µg/mL.

# Compound Smiles, Numeric Result
records = [
    ("CC[C@H]1OC(=O)[C@H](C)C(=O)[C@H](C)[C@@H](O[C@@H]2O[C@H](C)C[C@H](N(C)C)[C@H]2O)[C@](C)(OC)C[C@@H](C)C(=O)[C@H](C)[C@H]2N(CCCCn3cnc(-c4cccnc4)c3)C(=O)O[C@]12C", 0.03),
    ("CCC[C@@H]1C[C@@H](C(=O)N[C@@H]([C@H]2O[C@H](SC)[C@H](O)[C@@H](O)[C@H]2O)[C@H](C)Cl)N(C)C1", 0.03),
]

Continue with the compound presented below.
Req: Write down the reported Retest MIC after 10 Antibioticfree Subcultures of `CC[C@H]1OC(=O)[C@H](C)[C@@H](O[C@H]2C[C@@](C)(OC)[C@@H](O)[C@H](C)O2)[C@H](C)[C@@H](O[C@@H]2O[C@H](C)C[C@H](N(C)C)[C@H]2O)[C@](C)(O)C[C@@H](C)CN(C)[C@H](C)[C@@H](O)[C@]1(C)O` , test system: S. pyogenes.
Resp: 1
